# Target or test system: human GPR17 receptor (Homo sapiens, UniProt Q13304)
# Sequence (Q13304 whole entry): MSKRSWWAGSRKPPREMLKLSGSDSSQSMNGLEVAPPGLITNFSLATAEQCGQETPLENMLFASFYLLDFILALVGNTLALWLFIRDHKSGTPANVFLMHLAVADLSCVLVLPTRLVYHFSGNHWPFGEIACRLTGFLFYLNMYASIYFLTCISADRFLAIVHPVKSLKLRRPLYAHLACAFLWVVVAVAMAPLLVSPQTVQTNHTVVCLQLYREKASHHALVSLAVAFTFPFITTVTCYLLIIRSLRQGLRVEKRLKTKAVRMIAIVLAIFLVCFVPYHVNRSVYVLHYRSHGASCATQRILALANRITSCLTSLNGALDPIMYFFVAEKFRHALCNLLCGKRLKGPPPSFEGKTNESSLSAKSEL
# Assay procedure: Calcium mobilization functional assay (Fluo-8, FLIPR TETRA) in HEK-293 hGPR17 (Gα-q assay)
# Test parameters: antagonism of MDL29,951 (~EC80) induced Ca2+ signal; cell line (HEK-293 hGPR17 or HEK-293 Suchi5 hGPR17) not given
Measured property: IC50

[
  {
    "Compound": "O=S(=O)(Nc1ccccc1F)c1c[nH]cc1Cc1ccccc1 [Cpd 163]",
    "Assay result": "5000 to 50000 nM"
  },
  {
    "Compound": "Cc1cc(NS(=O)(=O)c2c[nH]c(-c3cc(Cl)ccc3F)c2)c(F)cc1C#N [Cpd 512]",
    "Assay result": "< 500 nM"
  },
  {
    "Compound": "N#Cc1ccc(NS(=O)(=O)c2c[nH]c(-c3ccc(C#N)cc3F)c2)c(F)c1 [Cpd 096]",
    "Assay result": "500 to 5000 nM"
  },
  {
    "Compound": "N#Cc1ccc(NS(=O)(=O)c2c[nH]c(-c3cccc4ccoc34)c2)c(F)c1 [Cpd 442]",
    "Assay result": "< 500 nM"
  },
  {
    "Compound": "N#Cc1cc(F)c(NS(=O)(=O)c2c[nH]c(-c3cccc4c(C(F)(F)F)coc34)c2)cc1F [Cpd 663]",
    "Assay result": "500 to 5000 nM"
  },
  {
    "Compound": "N#Cc1cc(F)c(NS(=O)(=O)c2c[nH]cc2-c2cccc(F)c2)cc1F [Cpd 497]",
    "Assay result": "< 500 nM"
  },
  {
    "Compound": "N#Cc1ccc(NS(=O)(=O)c2c[nH]c(-c3cccnc3)c2)c(F)c1 [Cpd 027]",
    "Assay result": "500 to 5000 nM"
  },
  {
    "Compound": "COc1cc(Cc2c[nH]cc2S(=O)(=O)Nc2ccc(C#N)cc2F)ccc1F [Cpd 536]",
    "Assay result": "< 500 nM"
  },
  {
    "Compound": "N#CCc1cnc(NS(=O)(=O)c2c[nH]c(-c3ccccn3)c2)c(F)c1 [Cpd 201]",
    "Assay result": "5000 to 50000 nM"
  },
  {
    "Compound": "N#Cc1cc(F)c(NS(=O)(=O)c2c[nH]c(-c3ccccc3F)c2)cc1Cl [Cpd 522]",
    "Assay result": "< 500 nM"
  },
  {
    "Compound": "Cc1cc(NS(=O)(=O)c2c[nH]c(-c3c(F)cc(F)cc3F)c2)c(F)cc1C#N [Cpd 495]",
    "Assay result": "500 to 5000 nM"
  },
  {
    "Compound": "COc1ccccc1-c1cc(S(=O)(=O)Nc2cc(F)c(C(F)(F)F)cc2F)c[nH]1 [Cpd 298]",
    "Assay result": "500 to 5000 nM"
  },
  {
    "Compound": "COc1ccc(-c2cc(S(=O)(=O)Nc3ccc(C#N)cc3F)c[nH]2)c(Cl)c1 [Cpd 300]",
    "Assay result": "500 to 5000 nM"
  },
  {
    "Compound": "N#Cc1ccc(NS(=O)(=O)c2c[nH]cc2Cc2cccs2)c(F)c1 [Cpd 343]",
    "Assay result": "< 500 nM"
  },
  {
    "Compound": "O=S(=O)(Nc1cc(F)c(OC(F)F)cc1F)c1c[nH]c(-c2ccns2)c1 [Cpd 638]",
    "Assay result": "< 500 nM"
  },
  {
    "Compound": "COc1cccc(-c2cc(S(=O)(=O)Nc3ccc(C#N)cc3F)c[nH]2)c1F [Cpd 087]",
    "Assay result": "500 to 5000 nM"
  },
  {
    "Compound": "N#Cc1ccc(NS(=O)(=O)c2c[nH]c(-c3ccccc3C(F)F)c2)c(F)c1 [Cpd 093]",
    "Assay result": "500 to 5000 nM"
  },
  {
    "Compound": "Cc1cccc(-c2cc(S(=O)(=O)Nc3ccc(C#N)cc3F)c[nH]2)c1Cl [Cpd 263]",
    "Assay result": "500 to 5000 nM"
  }
]
